# Assay Comment: Concentration of DFT analogs in rat plasma and cerebrospinal fluid after oral (PO) and subcutaneous (SC) doses
# Format: in vivo, Sprague-Dawley rats
# Measurement Conditions: male, Sprague-Dawley, rat, cerebrospinal fluid; rats, 300 μmol/kg PO, monosodium salt, 4 h; read-out: Concentration in cerebrospinal fluid
Recorded Metric: concentration at 4 h
Include the unit after the number when you answer.

## Input Requested field: concentration at 4 h. Item: `COCCOCCOCCOc1cccc(C2=N[C@@](C)(C(=O)O)CS2)c1O`
## Output 0 nM

---

# Assay Comment: Concentration of DFT analogs in rat plasma and cerebrospinal fluid after oral (PO) and subcutaneous (SC) doses
# Type: in vivo, Sprague-Dawley rats
# Measurement Conditions: male, Sprague-Dawley, rat, plasma; rats, 300 μmol/kg SC, monosodium salt, 0.5 h; read-out: Concentration in plasma
Recorded Metric: concentration at 0.5 h (µM)
Answers are plain numbers, in µM.

## Input Requested field: concentration at 0.5 h. Item: `COCCOCCOc1cccc(C2=N[C@@](C)(C(=O)O)CS2)c1O`
## Output 77

---

# Assay Comment: Concentration of DFT analogs in rat plasma and cerebrospinal fluid after oral (PO) and subcutaneous (SC) doses
# Type: in vivo, Sprague-Dawley rats
# Measurement Conditions: male, Sprague-Dawley, rat, cerebrospinal fluid; rats, 300 μmol/kg PO, monosodium salt, 2 h; read-out: Concentration in cerebrospinal fluid
Recorded Metric: concentration at 2 h

## Input Requested field: concentration at 2 h. Item: COCCOCCOCCOc1cccc(C2=N[C@@](C)(C(=O)O)CS2)c1O [III-A]
## Output 0 nM

---

# Assay Comment: Concentration of DFT analogs in rat plasma and cerebrospinal fluid after oral (PO) and subcutaneous (SC) doses
# Type: in vivo, Sprague-Dawley rats
# Measurement Conditions: male, Sprague-Dawley, rat, cerebrospinal fluid; rats, 300 μmol/kg SC, monosodium salt, 0.5 h; read-out: Concentration in cerebrospinal fluid
Recorded Metric: concentration at 0.5 h (µM)
One number for each entry, in µM.

## Input Requested field: concentration at 0.5 h. Item: `COCCOCCOc1cccc(C2=N[C@@](C)(C(=O)O)CS2)c1O`
## Output 0

---

# Assay Comment: Concentration of DFT analogs in rat plasma and cerebrospinal fluid after oral (PO) and subcutaneous (SC) doses
# Type: in vivo, Sprague-Dawley rats
# Measurement Conditions: male, Sprague-Dawley, rat, plasma; rats, 300 μmol/kg SC, monosodium salt, 1 h; read-out: Concentration in plasma
Recorded Metric: concentration at 1 h (µM)
Numbers only, in µM.

## Input Requested field: concentration at 1 h. Item: `COCCOCCOc1cccc(C2=N[C@@](C)(C(=O)O)CS2)c1O`
## Output 66

---

# Assay Comment: Concentration of DFT analogs in rat plasma and cerebrospinal fluid after oral (PO) and subcutaneous (SC) doses
# Type: in vivo, Sprague-Dawley rats
# Measurement Conditions: male, Sprague-Dawley, rat, plasma; rats, 300 μmol/kg PO, monosodium salt, 1 h; read-out: Concentration in plasma
Recorded Metric: concentration at 1 h (µM)
Give bare numbers, in µM.

## Input Requested field: concentration at 1 h. Item: `COCCOCCOCCOc1cccc(C2=N[C@@](C)(C(=O)O)CS2)c1O`
## Output 46

---

# Assay Comment: Concentration of DFT analogs in rat plasma and cerebrospinal fluid after oral (PO) and subcutaneous (SC) doses
# Type: in vivo, Sprague-Dawley rats
# Measurement Conditions: male, Sprague-Dawley, rat, cerebrospinal fluid; rats, 300 μmol/kg PO, monosodium salt, 8 h
Recorded Metric: concentration at 8 h (nM)
Numbers only, in nM.

## Input Requested field: concentration at 8 h. Item: `COCCOCCOCCOc1cccc(C2=N[C@@](C)(C(=O)O)CS2)c1O`
## Output 0

---

# Assay Comment: Concentration of DFT analogs in rat plasma and cerebrospinal fluid after oral (PO) and subcutaneous (SC) doses
# Assay type: in vivo, Sprague-Dawley rats
# Measurement Conditions: male, Sprague-Dawley, rat, plasma; rats, 300 μmol/kg PO, monosodium salt, 4 h; read-out: Concentration in plasma
Recorded Metric: concentration at 4 h (µM)
Answers are plain numbers, in µM.

## Input Requested field: concentration at 4 h. Item: `COCCOCCOCCOc1cccc(C2=N[C@@](C)(C(=O)O)CS2)c1O`
## Output 13

---

# Assay Comment: Concentration of DFT analogs in rat plasma and cerebrospinal fluid after oral (PO) and subcutaneous (SC) doses
# Format: in vivo, Sprague-Dawley rats
# Measurement Conditions: male, Sprague-Dawley, rat, plasma; rats, 300 μmol/kg SC, monosodium salt, 2 h; read-out: Concentration in plasma
Recorded Metric: concentration at 2 h (µM)
Answers are plain numbers, in µM.

## Input Requested field: concentration at 2 h. Item: `COCCOCCOc1cccc(C2=N[C@@](C)(C(=O)O)CS2)c1O`
## Output 44

---

# Assay Comment: Concentration of DFT analogs in rat plasma and cerebrospinal fluid after oral (PO) and subcutaneous (SC) doses
# Assay type: in vivo, Sprague-Dawley rats
# Measurement Conditions: male, Sprague-Dawley, rat, cerebrospinal fluid; rats, 300 μmol/kg SC, monosodium salt, 1 h; read-out: Concentration in cerebrospinal fluid
Recorded Metric: concentration at 1 h (nM)
Answers are plain numbers, in nM.

## Input Requested field: concentration at 1 h. Item: COCCOCCOc1cccc(C2=N[C@@](C)(C(=O)O)CS2)c1O [II-A]
## Output 0

---

# Assay Comment: Concentration of DFT analogs in rat plasma and cerebrospinal fluid after oral (PO) and subcutaneous (SC) doses
# Assay type: in vivo, Sprague-Dawley rats
# Measurement Conditions: male, Sprague-Dawley, rat, plasma; rats, 300 μmol/kg SC, monosodium salt, 4 h; read-out: Concentration in plasma
Recorded Metric: concentration at 4 h (µM)
Numbers only, in µM.

## Input Requested field: concentration at 4 h. Item: COCCOCCOc1cccc(C2=N[C@@](C)(C(=O)O)CS2)c1O [II-A]
## Output 7

---

# Assay Comment: Concentration of DFT analogs in rat plasma and cerebrospinal fluid after oral (PO) and subcutaneous (SC) doses
# Assay type: in vivo, Sprague-Dawley rats
# Measurement Conditions: male, Sprague-Dawley, rat, cerebrospinal fluid; rats, 300 μmol/kg SC, monosodium salt, 4 h; read-out: Concentration in cerebrospinal fluid
Recorded Metric: concentration at 4 h (nM)
Give bare numbers, in nM.

## Input Requested field: concentration at 4 h. Item: `COCCOCCOc1cccc(C2=N[C@@](C)(C(=O)O)CS2)c1O`
## Output 0

Just for reference, patent US20140323534A1 is where these values come from.
